Tested on: HSSY-II tumor spheroid viability
measurement protocol: Anticancer human tumor HSSY-II cell line growth inhibition;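 note: spheroids exposed to compounds for seven days before reading; percent of DMSO vehicle control viability so 100% = untreated level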
test conditions: second compound 0.000949 µM; first compound 0.1 µM; active compounds read low; spheroids with HUVEC and MSC
Protocol: Multicellular complex tumor spheroid response to DNA repair inhibitors in combination with DNA-damaging drugs This study explores the anticancer activities of DNA-damaging drugs and inhibitors of DNA damage repair, both as single agents and in combinations. […] Twenty-six patient-derived or established malignant cell lines were evaluated representing sarcoma, melanoma, small cell lung cancer (SCLC), non-small cell lung cancer (NSCLC), as well as bladder, ovarian and pancreatic cancers. […]
# note: boundary value 3% maps to -1; viability, T/C below it maps to 1

COc1cc(C)[nH]c(=O)c1CN1CCc2c(Cl)cc(C(OC)C3COC3)c(Cl)c2C1=O (stereo unspecified) + COc1cc2c(cc1O)CCNC21CSC2c3c(OC(C)=O)c(C)c4c(c3C(COC1=O)N1C(O)C3Cc5cc(C)c(OC)c(O)c5C(C21)N3C)OCO4; -1
CC1COCCN1c1cc(-c2ccnn2C)c2ccnc(-c3ccn[nH]3)c2n1 (stereo unspecified) + COc1cc2c(cc1O)CCNC21CSC2c3c(OC(C)=O)c(C)c4c(c3C(COC1=O)N1C(O)C3Cc5cc(C)c(OC)c(O)c5C(C21)N3C)OCO4; 1
CC(C)n1c(=O)n(C)c2cnc3cc(F)c(-c4ccc(OCCCN5CCCCC5)nc4)cc3c21 + COc1cc2c(cc1O)CCNC21CSC2c3c(OC(C)=O)c(C)c4c(c3C(COC1=O)N1C(O)C3Cc5cc(C)c(OC)c(O)c5C(C21)N3C)OCO4; -1
[2H]c1nc(C)nc([2H])c1-c1cc(NC[C@@H](C)c2cccc3c(C(=O)NC)ccnc23)ncn1 + COc1cc2c(cc1O)CCNC21CSC2c3c(OC(C)=O)c(C)c4c(c3C(COC1=O)N1C(O)C3Cc5cc(C)c(OC)c(O)c5C(C21)N3C)OCO4; 1
Cc1cc(C)c(CNC(=O)c2cc(-c3ccc(CN4CCOCC4)cc3)cc3c2cnn3C2CCCC2)c(=O)[nH]1 + COc1cc2c(cc1O)CCNC21CSC2c3c(OC(C)=O)c(C)c4c(c3C(COC1=O)N1C(O)C3Cc5cc(C)c(OC)c(O)c5C(C21)N3C)OCO4; 1

// next entry
Q: In the record for COc1ccc([C@@H](O)c2cc(-c3ncnc4cc(N5CCOCC5)ccc34)c(F)cc2Cl)nn1 + COc1cc2c(cc1O)CCNC21CSC2c3c(OC(C)=O)c(C)c4c(c3C(COC1=O)N1C(O)C3Cc5cc(C)c(OC)c(O)c5C(C21)N3C)OCO4 , is viability, T/C less than 3%?
Ans: 1

====

System: HSSY-II tumor spheroid viability
measurement protocol: Anticancer human tumor HSSY-II cell line growth inhibition; active = viability on the fitted dose curve at most 10% of control; inactive = the rest;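 note: spheroids exposed to compounds for seven days before reading; percent of DMSO vehicle control viability so 100% = untreated level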
test conditions: second compound 30 pM; first compound 3 µM; spheroids with HUVEC and MSC
Field 'call' accepts t = active, f = inactive

Before answering, review these 3 worked examples.
Cn1ncnc1[C@H]1c2n[nH]c(=O)c3cc(F)cc(c23)N[C@@H]1c1ccc(F)cc1 + COc1cc2c(cc1O)CCNC21CSC2c3c(OC(C)=O)c(C)c4c(c3C(COC1=O)N1C(O)C3Cc5cc(C)c(OC)c(O)c5C(C21)N3C)OCO4; t
Cc1sc2c(c1C)C(c1ccc(Cl)cc1)=NC(CC(=O)Nc1ccc(O)cc1)c1nnc(C)n1-2 (centres undefined) + COc1cc2c(cc1O)CCNC21CSC2c3c(OC(C)=O)c(C)c4c(c3C(COC1=O)N1C(O)C3Cc5cc(C)c(OC)c(O)c5C(C21)N3C)OCO4; t
CNCc1ccc(-c2cc(-c3nc(-c4ccc(S(=O)(=O)C(C)C)cc4)cnc3N)on2)cc1 + COc1cc2c(cc1O)CCNC21CSC2c3c(OC(C)=O)c(C)c4c(c3C(COC1=O)N1C(O)C3Cc5cc(C)c(OC)c(O)c5C(C21)N3C)OCO4; t

// next entry
Q: Which outcome was assigned to O=C(c1cc(Cc2n[nH]c(=O)c3ccccc23)ccc1F)N1CCN(C(=O)C2CC2)CC1 + COc1cc2c(cc1O)CCNC21CSC2c3c(OC(C)=O)c(C)c4c(c3C(COC1=O)N1C(O)C3Cc5cc(C)c(OC)c(O)c5C(C21)N3C)OCO4 in this test?
Ans: f
